Tested on: anti-Aβ antibodies in sera from vaccinated baboons
Test: Epitope mapping, 10-mer peptide-based ELISA with sera from vaccinated baboons
Details: peptide as plate coating, 10 weeks post immunization
Respond with Condition met for ELISA Titer titers (Log10) values of 0.3 Log10 and above, Condition not met for values below.

Here's what some known entries look like.
{"substance": "15 (KMDAEFRHDS) [Peptide 15]", "target": "anti-Aβ antibodies in sera from vaccinated baboons", "assigned-class": "Condition met"}
{"substance": "19 (FRHDSGYEVH) [Peptide 19]", "target": "anti-Aβ antibodies in sera from vaccinated baboons", "assigned-class": "Condition met"}
{"substance": "11 (ISEVKMDAEF) [Peptide 11]", "target": "anti-Aβ antibodies in sera from vaccinated baboons", "assigned-class": "Condition not met"}
{"substance": "17 (AEFRHDSGYE) [Peptide 17]", "target": "anti-Aβ antibodies in sera from vaccinated baboons", "assigned-class": "Condition met"}
{"substance": "8 (TEEISEVKMD) [Peptide 8]", "target": "anti-Aβ antibodies in sera from vaccinated baboons", "assigned-class": "Condition not met"}
{"substance": "22 (DSGYEVHHQK) [Peptide 22]", "target": "anti-Aβ antibodies in sera from vaccinated baboons", "assigned-class": "Condition met"}

// query I'd appreciate it if you could say whether 20 (RHDSGYEVHH) [Peptide 20] has ELISA Titer titers (Log10) at least equal to 0.3 Log10.
// result Condition met

// query Quick check, ELISA Titer titers (Log10) >= 0.3 Log10? 29 (HQKLVFFAED) [Peptide 29]
// result Condition not met

// query Entry 25 (YEVHHQKLVF) [Peptide 25] : is its ELISA Titer titers (Log10) no less than 0.3 Log10?
// result Condition met

// query Does the substance 13 (EVKMDAEFRH) [Peptide 13] have recorded ELISA Titer titers (Log10) that is 0.3 Log10 or more?
// result Condition not met

// query Confirm if ELISA Titer titers (Log10) reported for the substance 21 (HDSGYEVHHQ) [Peptide 21] is 0.3 Log10 or above.
// result Condition met

// query Given 14 (VKMDAEFRHD) [Peptide 14] , state whether its ELISA Titer titers (Log10) is at least 0.3 Log10.
// result Condition met

// query # bool: ELISA Titer titers (Log10) of 12 (SEVKMDAEFR) [Peptide 12] >= 0.3 Log10
// result Condition not met
